B1: minF1; a variant is named by its letters at N, in order (parent)
chain: GAGACCGCAACTGAAAAGTTGTTNNNNAANNNNNGGNTNAATTTCTGCACGTAGAAGCAAAAGGC

# Variants of: B1
# measurementProtocol: fraction ligated after 30 min (ligated reads / total reads); higher = more ligase activity
# conditionNotes: with F1*subA RNA substrate (template-directed ligation), 42 °C
fraction ligated for assorted variants
A bare number is all that is needed in reply.

Example variants with recorded fraction ligated:
inputSequence	fraction ligated
GAGACCGCAACTGAAAAGTTGTTACAGAAATGGTGGGTTGATTTCTGCACGTAGAAGCAAAAGGC	0.00805
GAGACCGCAACTGAAAAGTTGTTACAAATGGATGGGTTGAATTTCTGCACGTAGAAGCAAAAGGC	0.00252
GAGACCGCAACTGAAAAGTTGTTATCAGAAATAGGGTTGAATTTCTGCACGTAGAAGCAAAAGGC	0.00491
GAGACCGCAACTGAAAAGTTGTTCAGAAATGGATGGTTGAATTTCTGCACGTAGAAGCAAAAGGC	0.00607
GAGACCGCAACTGAAAAGTTGTACAAAATGGATGGGTTGAATTTCTGCACGTAGAAGCAAAAGGC	0.00472

Memo: GAGACCGCAACTGAAAAGTTGTTATGAAATGGATGGTTGAATTTCTGCACGTAGAAGCAAAAGGC , reported fraction ligated: 0.0074

Memo: GAGACCGCAACTGAAAAGTTGTTATAGAATGGATGGGTTGATTTCTGCACGTAGAAGCAAAAGGC , reported fraction ligated: 0.0158

Memo: GAGACCGCAACTGAAAAGTTGTTATAGAAAGATGGGTTGAATTTCTGCACGTAGAAGCAAAAGGC , reported fraction ligated: 0.00202

Memo: GAGACCGCAACTGAAAAGTTGTATAGAAAGGATGGGTTGAATTTCTGCACGTAGAAGCAAAAGGC , reported fraction ligated: 0.00277

Memo: GAGACCGCAACTGAAAAGTTGTTTCGAAATGGTGGGTTGAATTTCTGCACGTAGAAGCAAAAGGC , reported fraction ligated: 0.00336
